Molecular target: T1, human IL4 (human, UniProt P05112 25-153, biotinylated in the SPR and competition assays (sites not given))
T1 construct: Peprotech #200-04, mature protein produced in E. coli; also called hIL4; Interleukin 4
T1 sequence: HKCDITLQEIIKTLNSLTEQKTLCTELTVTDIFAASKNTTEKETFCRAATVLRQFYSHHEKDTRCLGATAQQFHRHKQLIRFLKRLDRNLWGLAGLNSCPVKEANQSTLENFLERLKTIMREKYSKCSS
Experiment: Luminex competition, 67 pM biotin-IL4 binding to IL4RA-Fc beads
attributeMeasured: pIC50
Quick note: pIC50 values are minus log10 of concentrations in mol/L.

What does the data say about its pIC50? Entry: C06_6E9 (designed binder, ankyrin repeat protein; His-tagged, IMAC-purified) DLGKKLLEAARAGQDDEVRILMANGADVNAIDSDGTTPLHLAAMDGHLEIVEVLLKYGADVNAVDWNGDTPLHLAAVDGHLEIVEVLLKYGADVNAQDNLGDTPLHLAAYYGHLEIVEVLLKHGADVNASDFHGITPLHLAAFSGHLEIVEVLLKYGADVNAQDKFGKTAFDISIDNGNEDLAEILQKLN 11.12

What does the data say about its pIC50? Entry: C06_42C7 (designed binder, ankyrin repeat protein; His-tagged, IMAC-purified) DLGKKLLEAASAGQDDEVRILMANGADVNAVDHDGFTPLHLAAADGHLEIVEVLLKHGADVNADDNFGWTPLHLAAFFGHLEIVEVLLKHGADVNAKDQTGLTPLHLAAVDGHLEIVEVLLKHGADVNAQDKFGKTAFDISIDNGNEDLAEILQKLN 10.34

What does the data say about its pIC50? Entry: C06_44C12 (designed binder, ankyrin repeat protein; His-tagged, IMAC-purified) DLGKKLLEAASAGQDDEVHILMANGADVNALDDSGYTPLHLAAEDGHLEIVEVLLKHGADVNAADRMGDTPLHLAAFVGHLEIVEVLLKYGADVNAVDLAGVTPLHVAAFYGHLEIVEVLLKYGADVNAQDKFGKTAFDISIDNGNEDLAEILQKLN 10.69
